tested on: Malme-3M; test: NCI tumour cell line growth inhibition, 48 h
Active and inactive are the calls of the source. Cut-off read from the data, not from the text of the source: active = GI50 up to about 1.1 µM and inactive = higher.
This section presents molecules with their documented GI50 values.
reportedEndpoint: GI50

>>> df
                                   molecule       measuredresult
0  O=C(/C=C/c1cccc([N+](=O)[O-])c1)c1ccc([N+](=O)[O-])cc1  > 100 µM (inactive)
1  CC1(C)NC2C(=O)c3c([nH]c4ccccc34)[C@]3(C)CCC1CC23 (stereo partly drawn)  > 100 µM (inactive)
2  O=C1OCC2(CO1)CC1C=CC2C1 (stereo not drawn)  > 100 µM (inactive)

====

system: NCI-H522; assay: NCI tumour cell line growth inhibition, 48 h
Calls of active or inactive are those of the source. Cut-off read from the data, not from the text of the source: active = GI50 up to about 1.1 µM and inactive = higher.
This section presents compounds with their documented GI50 values.
reportedEndpoint: GI50

In [3]: df
Out[3]:
                                   compound       measuredresult
0  COC1CC(N)(c2ccccc2)C(O)C(C)O1 (stereo not drawn)  > 100 µM (inactive)
1  O=C(O)c1ccc2c(c1)CC1(C2)Cc2cc3c(cc2C1=O)CCC3 (stereo not drawn)  > 100 µM (inactive)
2  Cc1[nH]c(=O)[nH]c(=O)c1C(=O)N(CCO)Cc1ccccc1  > 100 µM (inactive)
3   CN(C)CCNC(=O)c1cccc2c1C(=O)c1ccccc1C2=O   25.1 µM (inactive)
4      C[S+](C)CC(=O)c1ccc2c(c1)Sc1ccccc1O2     1.09 µM (active)
5     COc1cc(OC)c(OC)cc1/C=C/c1cnnc2ccccc12   > 10 µM (inactive)
6  O=C1/C(=C/c2ccc(O)c([N+](=O)[O-])c2)CCC/C1=C\c1ccc(O)c([N+](=O)[O-])c1   8.93 µM (inactive)
7                               COC(=N)CCCl   99.1 µM (inactive)

====

test system: SF-295; assay: NCI tumour cell line growth inhibition, 48 h
Calls of active or inactive are those of the source. Rule as the data show it: active = GI50 up to about 1.1 µM and inactive = higher.
Outcome codes: yes (1) = active, no (0) = inactive

compound	classLabel
CC(=O)OC1C(O)C(C)OC(OC2C(OC(=O)C3CCC4C(C3)OC3(CC(OC(=O)/C=C/c5ccccc5)C(C)CO3)C43CO3)OC(C)C(O)C2OC(C)=O)C1O (stereo unspecified)	yes (1)
O=C1C=CC(=O)N1Nc1ccc([N+](=O)[O-])cc1[N+](=O)[O-]	no (0)
Cc1c2c(cc3c1[nH]c1ccccc13)C(c1ccc(F)cc1)=NCC2	yes (1)
CC1(CO)C(=O)OC12CCCCC2 (stereo unspecified)	no (0)
O=C(NC(=O)c1cc(-c2ccccc2)n[nH]1)c1ccccc1	no (0)
C[C@]12CC[C@@H]3c4ccc(O)cc4CC[C@H]3[C@@H]1C/C(=C\c1ccncc1)[C@@H]2O	no (0)
C[P+]1(Cc2ccccc2)CCCC1	no (0)
O=C1C(Cl)C(c2cccc(Cl)c2)N1c1ccc(-n2c(S)nc3ccccc3c2=O)cc1 (stereo unspecified)	no (0)
Cc1ccc(C)c(N2C(=O)C(=O)C(c3nc4ccccc4o3)C(=O)C2=O)c1	no (0)
COc1cc(Nc2nc3ccccc3n3cccc23)cc(OC)c1OC	no (0)
CCOC(C[Se]CC(OCC)OCC)OCC	no (0)
COc1ccc(NC(=S)Nc2cc(C)cc(C)n2)cc1	no (0)
COc1cc(OC)c(OC)cc1/C=C/c1cnnc2ccccc12	no (0)
COC(=O)CCNC(=O)OCc1ccccc1	no (0)
Cc1ccccc1OCC(COC(=O)Nc1ccccc1)OC(=O)Nc1ccccc1 (stereo unspecified)	no (0)
CCCC[C@H]1[C@@H](OCOc2ccccc2)COC(=O)N1[C@H](C)c1ccccc1	no (0)
Cc1cccc(N2C(=O)C3ON(C(C(N)=O)c4ccccc4)C(c4c5ccccc5c(Cl)c5ccccc45)C3C2=O)c1C (stereo unspecified)	no (0)
CC(=O)CC(=O)N1CCSC1=S	no (0)
CC(=O)Nc1c(C)cc2c(nc3n2CCC3O)c1[N+](=O)[O-] (stereo unspecified)	no (0)
COC(=O)C(C(=O)C(=O)Nc1ccccc1C#N)c1nc2ccc([N+](=O)[O-])cc2nc1O (stereo unspecified)	no (0)
O=C(NC1=C(Cl)C(=O)c2ccccc2C1=O)C(=O)C(C(=O)c1ccc2ccccc2c1)C1OC(=O)c2ccccc21 (stereo unspecified)	no (0)

====

system: IGROV-1; assay: NCI tumour cell line growth inhibition, 48 h
Activity calls are given as the source filed them. Rule as the data show it: active = GI50 up to about 1.1 µM and inactive = higher.
reportedEndpoint: GI50

>>> df
                                    molecule  testedsystem  reportedendpoint       measuredresult
 0  CCOC(C)OC1CC(n2cc(C)c(=O)[nH]c2=O)OC1CO (stereo unspecified)       IGROV-1              GI50  > 100 µM (inactive)
 1            CCOC(=O)OC1(c2ccccc2)CCN(C)CC1       IGROV-1              GI50  > 100 µM (inactive)
 2                CO/C(N)=C(C#N)/N=C/c1ccco1       IGROV-1              GI50  > 100 µM (inactive)
 3  O=C1OCC2(CO1)CC1C=CC2C1 (stereo unspecified)       IGROV-1              GI50  > 100 µM (inactive)
 4                CO/C(N)=C(C#N)/N=C/c1cccs1       IGROV-1              GI50   77.6 µM (inactive)
 5  O=S(=O)(O)c1ccc2c(/N=N/c3ccc(Cl)cc3)c(O)ccc2c1       IGROV-1              GI50  > 100 µM (inactive)
 6          CSc1n/c(=N\c2ccccc2)sn1-c1ccccc1       IGROV-1              GI50   4.65 µM (inactive)
 7             CNC(=O)CN(C)C(=O)CCC(=O)N(C)C       IGROV-1              GI50  > 100 µM (inactive)
 8  CCN(CC)CCOC(=O)c1ccc(N)cc1.CCOC(=O)Nc1ccc(S(=O)(=O)OC)cc1.CCOC(=O)Nc1ccc(S(=O)(=O)OC)cc1.Nc1ccc(C(=O)O)c(O)c1       IGROV-1              GI50  > 100 µM (inactive)
 9       COc1cc2cc[n+](C)c(Cc3ccccc3)c2cc1OC       IGROV-1              GI50  > 100 µM (inactive)
10  O=C(Cn1c2ccc(Br)cc2c2nc3ccccc3nc21)N/N=C/c1ccccc1       IGROV-1              GI50  > 100 µM (inactive)

====

HCT-15 data, read-out GI50
reportedEndpoint: GI50

                                    compound  testedsystem  measuredresult
 0    Cn1c(=O)c(NC(=O)C(Cl)(Cl)Cl)nc2ccccc21        HCT-15        > 100 µM
 1                   O/N=C\c1c(O)ccc2ccccc12        HCT-15         32.2 µM
 2  CC(=O)Nc1c(C)cc2c(nc3n2CCC3O)c1[N+](=O)[O-] (stereo unspecified)        HCT-15        > 100 µM
 3  Cc1cccc(O)c1-c1nnc(CCCCCCCCc2nnc(-c3c(C)cccc3O)n2N)n1N        HCT-15        > 100 µM
 4        O=C(O)c1cc(=O)c2c([nH]c3ccccc32)s1        HCT-15        > 100 µM
 5  N#CC1Cc2cc3c(cc21)OCO3 (stereo unspecified)        HCT-15        > 100 µM
 6  CN(C)C1C(=O)C(C(N)=O)=C(O)C2(O)C(O)=C3C(=O)c4c(O)cccc4C(C)(O)C3CC12 (stereo unspecified)        HCT-15         81.1 µM
 7       O=C(C[N+]1(c2ccccc2)CCOCC1)c1ccccc1        HCT-15        > 100 µM
 8        COC(=O)c1cc2c3ccccc3n(C(C)=O)c2cn1        HCT-15         68.9 µM
 9  [N-]=[N+]=C(C(=O)CN1CCCC1=O)S(=O)(=O)c1ccccc1        HCT-15        > 100 µM
10  COc1ccc(C2NCCc3c2[nH]c2ccccc32)cc1 (stereo unspecified)        HCT-15        > 100 µM

====

test system: LXFL 529; experiment: NCI tumour cell line growth inhibition, 48 h
Calls of active or inactive are those of the source. Cut-off read from the data, not from the text of the source: active = GI50 up to about 1.1 µM and inactive = higher.
This section presents molecules with their documented GI50 values.
reportedEndpoint: GI50

                                   molecule       measuredresult
0  O=Cc1cc(O)c(O)c(O)c1-c1c(C=O)cc(O)c(O)c1O  > 100 µM (inactive)
1  CCC(C)COC(=O)c1ccc(/N=C\c2ccc(/C=N/c3ccc(C(=O)OCC(C)CC)cc3)cc2)cc1 (stereo unspecified)  > 100 µM (inactive)
2  CC(C(=O)Oc1ccc2ccccc2c1-c1c(O)ccc2ccccc12)c1ccccc1 (stereo unspecified)   14.1 µM (inactive)
3       COc1cc2cc[n+](C)c(Cc3ccccc3)c2cc1OC  > 100 µM (inactive)
4                O=C(O)CCSC(=S)Nc1cccc(F)c1   62.2 µM (inactive)
5                    C[P+]1(Cc2ccccc2)CCCC1  > 100 µM (inactive)
